Would you mind telling me the reported pIC50 of each entry?
molecular target: CRAF (Homo sapiens, UniProt P04049); construct: fused on or other part: GST tag (N-terminal according to the vendor's product); assay: CRAF kinase activity assay (ADP-Glo); assay type: biochemical; settings: Table 3; 10 μM ATP, kinase-dead MEK1 substrate
Sequence (P04049 whole entry Y340E/Y341E, form open, the tested form may be a part): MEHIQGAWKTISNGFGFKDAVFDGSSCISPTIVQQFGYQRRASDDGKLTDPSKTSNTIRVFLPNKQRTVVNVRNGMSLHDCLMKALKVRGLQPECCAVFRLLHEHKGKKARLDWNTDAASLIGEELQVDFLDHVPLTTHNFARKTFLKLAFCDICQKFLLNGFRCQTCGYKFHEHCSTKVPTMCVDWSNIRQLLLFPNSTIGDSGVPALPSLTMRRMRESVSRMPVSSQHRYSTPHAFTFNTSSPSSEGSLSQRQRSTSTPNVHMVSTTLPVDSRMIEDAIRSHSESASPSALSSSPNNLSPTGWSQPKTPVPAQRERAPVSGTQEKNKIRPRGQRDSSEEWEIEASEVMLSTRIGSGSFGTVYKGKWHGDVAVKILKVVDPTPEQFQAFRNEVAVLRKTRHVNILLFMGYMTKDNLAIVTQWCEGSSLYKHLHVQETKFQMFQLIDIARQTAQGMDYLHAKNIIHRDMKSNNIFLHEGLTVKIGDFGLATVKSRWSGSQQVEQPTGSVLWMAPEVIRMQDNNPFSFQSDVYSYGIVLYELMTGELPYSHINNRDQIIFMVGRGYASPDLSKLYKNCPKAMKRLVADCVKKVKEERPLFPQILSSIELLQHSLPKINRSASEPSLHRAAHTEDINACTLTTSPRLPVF
pIC50: −log10 of the molar value.

CC(=O)N1CCN(c2cccc3c2ncn3-c2nc3c(Nc4c(F)ccc(NS(=O)(=O)c5cccc(Cl)c5Cl)c4F)ncnc3s2)CC1 : > 8.00
COc1ccc(S(=O)(=O)Nc2ccc(F)c(Nc3ncnc4sc(-n5cnc6c(C(C)(C)C#N)cccc65)nc34)c2F)c(C)c1Cl : 7.30 to 8.00

q: Tell me measured pIC50 for COc1ccc(S(=O)(=O)Nc2ccc(F)c(Nc3ncnc4sc(-n5cnc6ccccc65)nc34)c2F)c(C)c1Cl please.
a: 7.30 to 8.00

---

Would you mind telling me the reported pEC50 of each entry?
test system: Lovo cells; assay: Proliferation inhibition, CellTiter-Glo, Lovo; assay type: cell-based, human; conditions: Table D-2; Lovo (KRAS-G13D), 3 days; read-out: Prolif. (proliferation EC50)
pEC50: −log10 of the molar value.

N#CC1(c2cccc3c2ncn3-c2nc3c(Nc4c(F)ccc(NS(=O)(=O)c5cccc(Cl)c5Cl)c4F)ncnc3s2)CC1 : > 6.52

q: Tell me measured pEC50 for Cc1c(F)cccc1S(=O)(=O)Nc1ccc(F)c(Nc2ncnc3sc(-n4cc(C(=O)N5C6CCC5CN(C)C6)c5ccccc54)nc23)c1F please.
a: > 6.52

---

system: pERK, HCT116 cells; test: Phospho-ERK inhibition, AlphaLISA p-ERK 1/2, HCT-116; assay type: cell-based, human; conditions: Table 3; lowest % inhibition value of the pERK IC50 curve; above −20% = no paradoxical induction
MEASUREMENT_NAME: HCT116 pERK (Ymin %)
Numbers only, in %.

Study these solved cases before continuing.
O=C(c1cn(-c2nc3c(Nc4c(F)ccc(NS(=O)(=O)c5cccc(Cl)c5Cl)c4F)ncnc3s2)c2ccccc12)N1CC2CC1CO2 (stereo not shown) [Example 84] : 18
O=C(c1cn(-c2nc3c(Nc4c(F)ccc(NS(=O)(=O)c5cccc(Cl)c5Cl)c4F)ncnc3s2)c2ccccc12)N1CC(C(F)F)C1 [Example 57] : 4
Nc1ccncc1-c1cccc2c1ncn2-c1nc2c(Nc3c(F)ccc(NS(=O)(=O)c4cccc(Cl)c4Cl)c3F)ncnc2s1 [Example 133] : −12

Please give HCT116 pERK (Ymin %) for each item listed below.
1. Cc1c(Cl)cccc1S(=O)(=O)Nc1ccc(F)c(Nc2ncnc3sc(-n4cnc5c(C(C)(C)C#N)cccc54)nc23)c1F [Example 116]
2. Cc1cn(-c2nc3c(Nc4c(F)ccc(NS(=O)(=O)c5cccc(Cl)c5Cl)c4F)ncnc3s2)cn1 [Example 125]
3. O=C(c1cn(-c2nc3c(Nc4c(F)ccc(NS(=O)(=O)c5cccc(Cl)c5Cl)c4F)ncnc3s2)c2ccccc12)N1CCC(O)(C(F)(F)F)CC1 [Example 97]
4. O=S(=O)(Nc1ccc(F)c(Nc2ncnc3sc(-n4cnc5c(N6C7CCC6CC(O)C7)cccc54)nc23)c1F)c1cccc(Cl)c1Cl (stereo not shown) [Example 129]
5. O=S(=O)(Nc1ccc(F)c(Nc2ncnc3sc(-n4cnc5c(OCCO)cccc54)nc23)c1F)c1cccc(Cl)c1Cl [Example 111]
6. Nc1cccc2c1ncn2-c1nc2c(Nc3c(F)ccc(NS(=O)(=O)c4cccc(Cl)c4Cl)c3F)ncnc2s1 [Example 3]
7. CC(C)(O)C1CCCN1C(=O)c1cn(-c2nc3c(Nc4c(F)ccc(NS(=O)(=O)c5cccc(Cl)c5Cl)c4F)ncnc3s2)c2ccc(F)cc12 (stereo not shown) [Example 101]
8. COCCN(C)C(=O)c1nn(-c2nc3c(Nc4c(F)ccc(NS(=O)(=O)c5cccc(F)c5C)c4F)ncnc3s2)c2ccccc12 [Example 26]

a:
1: −3; 2: 2; 3: −10; 4: 0; 5: −10; 6: −9; 7: 0; 8: −13

Please give HCT116 pERK (Ymin %) for each item listed below.
1. O=S(=O)(Nc1ccc(F)c(Nc2ncnc3sc(-n4cnc5ccccc54)nc23)c1F)c1ccccc1Cl [Example 37]
2. O=C(c1cn(-c2nc3c(Nc4c(F)ccc(NS(=O)(=O)c5cccc(Cl)c5Cl)c4F)ncnc3s2)c2ccccc12)N1CC(O)C1 [Example 59]

a:
1: −11; 2: 4

---

Would you mind telling me the reported HCT116 pERK (Ymin %) of each entry?
tested on: pERK, HCT116 cells; assay: Phospho-ERK inhibition, AlphaLISA p-ERK 1/2, HCT-116; assay type: cell-based, human; conditions: Table 3; lowest % inhibition value of the pERK IC50 curve; above −20% = no paradoxical induction
One number for each entry, in %.

Cc1c(F)cccc1S(=O)(=O)Nc1ccc(F)c(Nc2ncnc3sc(-n4cc(C(=O)N(C)Cc5cccnc5)c5ccccc54)nc23)c1F : 7
CN(Cc1cccnc1)C(=O)c1cn(-c2nc3c(Nc4c(F)ccc(NS(=O)(=O)c5cccc(Cl)c5Cl)c4F)ncnc3s2)c2ccccc12 : 1
O=S(=O)(Nc1ccc(F)c(Nc2ncnc3sc(-n4cnc5c(N6CCN(CCO)CC6)cccc54)nc23)c1F)c1cccc(Cl)c1Cl : 0
CC(C)S(=O)(=O)c1cn(-c2nc3c(Nc4c(F)ccc(NS(=O)(=O)c5cccc(Cl)c5Cl)c4F)ncnc3s2)c2ccccc12 : −12
O=S(=O)(Nc1ccc(F)c(Nc2ncnc3sc(-n4cnc5c(CCO)cccc54)nc23)c1F)c1cccc(Cl)c1Cl : −9

Here is the next item to consider.
q: Tell me measured HCT116 pERK (Ymin %) for NC(=O)c1cccc2c1ncn2-c1nc2c(Nc3c(F)ccc(NS(=O)(=O)c4cccc(Cl)c4Cl)c3F)ncnc2s1 please.
a: −11

---

Tested on: Mewo cells
Experiment: Proliferation inhibition, CellTiter-Glo, Mewo
Format: cell-based, human
Settings: Table D-2; Mewo (NF1 LOF), 3 days; read-out: Prolif. (proliferation EC50)
Description: All cancer cell lines (A375, A101D, A2058, RKO, HT29 SK-MEL 30, IPC298, HepG2, HCT-116, Lovo, SW620, SW480, NCI-H358, NCI-H2122, Calu-6, NCIH2087, NCIH1755, NCIH1666 and Mewo) were obtained from ATCC and cultured in RPM1-1640 medium (Gibco) supplemented with 5% heat inactivated fetal bovine serum (FBS, Wisent) at 37° C. under 5% CO2. […] The effect of each compound dilution on the proliferation of cancer cell lines was expressed in % inhibition and calculated as follows. […]
Would you mind telling me the reported EC50 of each entry?

Cc1c(F)cccc1S(=O)(=O)Nc1ccc(F)c(Nc2ncnc3sc(-n4cc(C(=O)N5C6CCC5CN(C)C6)c5ccccc54)nc23)c1F [Example 44] : < 300 nM

Here is the next item to consider.
q: Fill: EC50 (Mewo cells) for this compound N#CC1(c2cccc3c2ncn3-c2nc3c(Nc4c(F)ccc(NS(=O)(=O)c5cccc(Cl)c5Cl)c4F)ncnc3s2)CC1 [Example 122]
a: < 300 nM

---

molecular target: BRAF (Homo sapiens); construct: GST; purchased Millipore Sigma B4062-10UG; assay: BRAF kinase activity assay (ADP-Glo); type: biochemical; conditions: Table 3; 10 μM ATP, kinase-dead MEK1 substrate
Sequence (P15056 whole entry): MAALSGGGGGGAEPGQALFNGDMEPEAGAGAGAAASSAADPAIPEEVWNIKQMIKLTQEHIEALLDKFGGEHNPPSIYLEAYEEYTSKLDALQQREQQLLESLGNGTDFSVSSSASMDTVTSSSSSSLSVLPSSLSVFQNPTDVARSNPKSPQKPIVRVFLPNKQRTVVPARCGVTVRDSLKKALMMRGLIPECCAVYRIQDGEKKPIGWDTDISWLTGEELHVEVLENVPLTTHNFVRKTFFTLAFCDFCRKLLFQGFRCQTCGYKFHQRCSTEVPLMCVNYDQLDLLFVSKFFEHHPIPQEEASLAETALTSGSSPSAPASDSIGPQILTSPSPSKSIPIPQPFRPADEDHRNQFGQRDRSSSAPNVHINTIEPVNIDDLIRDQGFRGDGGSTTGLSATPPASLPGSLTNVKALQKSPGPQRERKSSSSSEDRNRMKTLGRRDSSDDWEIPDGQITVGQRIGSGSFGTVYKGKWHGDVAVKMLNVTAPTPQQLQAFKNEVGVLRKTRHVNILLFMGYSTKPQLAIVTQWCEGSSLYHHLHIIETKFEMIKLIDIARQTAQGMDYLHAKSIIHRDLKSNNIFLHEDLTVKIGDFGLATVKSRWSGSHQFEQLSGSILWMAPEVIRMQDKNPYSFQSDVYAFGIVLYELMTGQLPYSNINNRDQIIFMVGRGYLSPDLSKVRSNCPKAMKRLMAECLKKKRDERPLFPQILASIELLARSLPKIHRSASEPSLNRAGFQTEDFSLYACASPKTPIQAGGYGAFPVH
pIC50: −log10 of the molar value.
MEASUREMENT_NAME: pIC50

Cc1c(F)cccc1S(=O)(=O)Nc1ccc(F)c(Nc2ncnc3sc(-n4cnc5c(F)cccc54)nc23)c1F : 8.00 to 9.00
O=C(c1cn(-c2nc3c(Nc4c(F)ccc(NS(=O)(=O)c5cccc(Cl)c5Cl)c4F)ncnc3s2)c2ccccc12)N1CC(O)C1 : > 9.00
O=S(=O)(Nc1ccc(F)c(Nc2ncnc3sc(-n4cnc5c(N6CCC[C@@H](O)C6)cccc54)nc23)c1F)c1cccc(Cl)c1Cl : 8.00 to 9.00
Cc1c(F)cccc1S(=O)(=O)Nc1ccc(F)c(Nc2ncnc3sc(-n4cc(C(=O)N(C)Cc5ccncc5)c5ccccc54)nc23)c1F : 8.00 to 9.00
O=S(=O)(Nc1ccc(F)c(Nc2ncnc3sc(-n4nnc5ccccc54)nc23)c1F)c1cccc(Cl)c1Cl : < 8.00

Here is the next item to consider.
q: Tell me measured pIC50 for O=S(=O)(Nc1ccc(F)c(Nc2ncnc3sc(-n4cnc5c(-c6cccnc6)cccc54)nc23)c1F)c1cccc(Cl)c1Cl please.
a: 8.00 to 9.00

---

Would you mind telling me the reported pEC50 of each entry?
system: NCIH1755 cells; assay: Proliferation inhibition, CellTiter-Glo, NCIH1755; format: cell-based, human; details: Table D-2; NCIH1755 (BRAF G469A), 3 days; read-out: Prolif. (proliferation EC50)
pEC50: −log10 of the molar value.

N#CC1(c2cccc3c2ncn3-c2nc3c(Nc4c(F)ccc(NS(=O)(=O)c5cccc(Cl)c5Cl)c4F)ncnc3s2)CC1 : > 6.52

Here is the next item to consider.
q: Tell me measured pEC50 for Cc1c(F)cccc1S(=O)(=O)Nc1ccc(F)c(Nc2ncnc3sc(-n4cc(C(=O)N5C6CCC5CN(C)C6)c5ccccc54)nc23)c1F please.
a: > 6.52

Ref: patent US20260137697A1
